- Test system: Pseudomonas aeruginosa
- ASSAY DETAILS: Antibacterial activity against Pseudomonas aeruginosa MTCC 741 assessed as growth inhibition at 3.12 to 50 ug/mL after 24 hr by agar disk diffusion method
- Type: functional
# cutoff 20 mm applies to inhibition zone (IZ); >= gives met, < gives not met

Dear colleague, could you confirm whether CC1CC(C)CN(c2nc(-c3ccc(NCC(=O)Nc4ccc(Br)cc4)cc3)nc(N3CC(C)CC(C)C3)n2)C1 (stereo unspecified) has inhibition zone (IZ) at or above 20 mm?
met

Also need CC1CC(C)CN(c2nc(-c3ccc(NCC(=O)Nc4ccc(F)cc4)cc3)nc(N3CC(C)CC(C)C3)n2)C1 (stereo unspecified) , thanks.
met

Do the same for CC1CC(C)CN(c2nc(-c3ccc(NCC(=O)Nc4nc5ccc([N+](=O)[O-])cc5s4)cc3)nc(N3CC(C)CC(C)C3)n2)C1 (stereo unspecified) please
not met

Try this compound too: COc1ccc(NC(=O)CNc2ccc(-c3nc(N4CC(C)CC(C)C4)nc(N4CC(C)CC(C)C4)n3)cc2)cc1 (stereo unspecified)
met

Then CCOc1ccc2nc(NC(=O)CNc3ccc(-c4nc(N5CC(C)CC(C)C5)nc(N5CC(C)CC(C)C5)n4)cc3)sc2c1 (stereo unspecified) ?
met

Next:
Reported inhibition zone (IZ) at or above 20 mm? CC1CC(C)CN(c2nc(-c3ccc(NCC(=O)Nc4ccc(Cl)cc4)cc3)nc(N3CC(C)CC(C)C3)n2)C1 (stereo unspecified)
met

----------
- Tested on: Candida albicans
- ASSAY DETAILS: Antifungal activity against Candida albicans MTCC 183 assessed as growth inhibition after 48 hr by agar streak dilution method
- Format: functional
- TEST CONDITIONS: MTCC 183, 48 h
METRIC: MIC (µg/mL)
Please respond with the number in µg/mL and leave the unit unwritten.

Guide cases for MIC, answers given:
Need MIC, item COc1ccc(NC(=O)CNc2ccc(-c3nc(N4CC(C)CC(C)C4)nc(N4CC(C)CC(C)C4)n3)cc2)cc1 (centres undefined)
25

Thanks! And CC1CC(C)CN(c2nc(-c3ccc(NCC(=O)Nc4nc5ccc(Br)cc5s4)cc3)nc(N3CC(C)CC(C)C3)n2)C1 (centres undefined) ?
50

Let us move to another entry and its MIC.
// lookup MIC for CC(=O)N1CCN(c2ccc(OCC3COC(Cn4ccnc4)(c4ccc(Cl)cc4Cl)O3)cc2)CC1 (centres undefined) [KETOCONAZOLE]
1.56

----------
- Tested on: Staphylococcus aureus
- ASSAY DETAILS: Antibacterial activity against Staphylococcus aureus MTCC 96 assessed as growth inhibition after 24 hr by agar streak dilution method
- Format: functional
- TEST CONDITIONS: MTCC 96, 24 h
As shown below, each of these compounds has a reported MIC value.
Use µg/mL as the unit, but write only the number.

Past entries and their recorded results:
# lookup: MIC of CC1CC(C)CN(c2nc(-c3ccc(NCC(=O)Nc4nc5ccccc5s4)cc3)nc(N3CC(C)CC(C)C3)n2)C1 (stereo not drawn)
50

Request: CC1CC(C)CN(c2nc(-c3ccc(NCC(=O)Nc4nc5ccc(I)cc5s4)cc3)nc(N3CC(C)CC(C)C3)n2)C1 (stereo not drawn)
12.5

Continue with CC1CC(C)CN(c2nc(-c3ccc(NCC(=O)Nc4nc5ccc([N+](=O)[O-])cc5s4)cc3)nc(N3CC(C)CC(C)C3)n2)C1 (stereo not drawn)
12.5

Then this compound: CCOc1ccc(NC(=O)CNc2ccc(-c3nc(N4CC(C)CC(C)C4)nc(N4CC(C)CC(C)C4)n3)cc2)cc1 (stereo not drawn)
25

Could you do the same for CC(=O)Nc1ccc2nc(NC(=O)CNc3ccc(-c4nc(N5CC(C)CC(C)C5)nc(N5CC(C)CC(C)C5)n4)cc3)sc2c1 (stereo not drawn) , please?
50

Continuing:
Item CC1CC(C)CN(c2nc(-c3ccc(NCC(=O)Nc4nc5ccc(F)cc5s4)cc3)nc(N3CC(C)CC(C)C3)n2)C1 (stereo not drawn) has what recorded MIC?
3.12

Queued: CC1CC(C)CN(c2nc(-c3ccc(NCC(=O)Nc4ccc(I)cc4)cc3)nc(N3CC(C)CC(C)C3)n2)C1 (stereo not drawn)
50

Request: CC1CC(C)CN(c2nc(-c3ccc(NCC(=O)Nc4ccc(Cl)cc4)cc3)nc(N3CC(C)CC(C)C3)n2)C1 (stereo not drawn)
25
